Test system: N-methyl-D-aspartate receptor complex
Experiment description: [3H]MK-801 binding to rat cortical membranes with excess L-glutamate and glycine, modulated by polyamines
Condition context: 1 μM tetraamine; 100 μM L-Glu, 100 μM Gly, 2 nM [3H]MK-801; mean ± SD
Quantity: [3H]MK-801 binding relative to "100% Control" (%)

Molecule: CCNCCCCNCCCCNCCCCNCC
Target: N-methyl-D-aspartate receptor complex
Value reported: 114.3
//
Molecule: Cl.Cl.Cl.Cl.NCCCNCCCCNCCCN [SPM, Spermine tetrahydrochloride, reference compound]
Target: N-methyl-D-aspartate receptor complex
Value reported: 123.2
//
Molecule: CNCCCCNCCCCNCCCCNC
Target: N-methyl-D-aspartate receptor complex
Value reported: 117.8
//
Molecule: CNCCCNCCCNCCCNC
Target: N-methyl-D-aspartate receptor complex
Value reported: 120.6
//
Molecule: CCNCCCNCCCNCCCNCC
Target: N-methyl-D-aspartate receptor complex
Value reported: 113.7
//
Molecule: CC(C)(C)NCCCCNCCCCNCCCCNC(C)(C)C
Target: N-methyl-D-aspartate receptor complex
Value reported: 106.5

src = patent US5886051A
